Reported property: melting point

Examples with their reported melting point follow.
[[record]]
compound = "Cc1ccc2c(c1)N=C(c1cc(I)cc(I)c1O)CC(c1ccc(N(C)C)cc1)S2 (stereo not shown)"
reported_property = "melting point"
result_value = "230 to 232 °C"

[[record]]
compound = "Cc1ccc2c(c1)N=C(c1cc(C)cc(I)c1O)CC(c1ccc(N(C)C)cc1)S2 (stereo not shown)"
reported_property = "melting point"
result_value = "218 to 220 °C"

[[record]]
compound = "Cc1ccc2c(c1)N=C(c1cc(Br)cc(I)c1O)CC(c1ccc(N(C)C)cc1)S2 (stereo not shown)"
reported_property = "melting point"
result_value = "244 to 246 °C"


From here, focus on the item given below.
// Cc1ccc2c(c1)N=C(c1cc(Cl)cc(Br)c1O)CC(c1ccc(N(C)C)cc1)S2 (stereo not shown) : melting point value = 244 to 246 °C
